Target: Prothrombinase (Homo sapiens)
Sequence (P00742 235-488 limits assumed): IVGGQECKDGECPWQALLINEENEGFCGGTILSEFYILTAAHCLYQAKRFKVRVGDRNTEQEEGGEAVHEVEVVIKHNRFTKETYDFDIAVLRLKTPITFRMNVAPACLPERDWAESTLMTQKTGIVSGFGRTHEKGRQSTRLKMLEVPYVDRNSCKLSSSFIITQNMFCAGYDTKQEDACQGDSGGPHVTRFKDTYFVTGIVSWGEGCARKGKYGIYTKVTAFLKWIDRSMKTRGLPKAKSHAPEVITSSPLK
Sequence (P00742 41-179 limits assumed): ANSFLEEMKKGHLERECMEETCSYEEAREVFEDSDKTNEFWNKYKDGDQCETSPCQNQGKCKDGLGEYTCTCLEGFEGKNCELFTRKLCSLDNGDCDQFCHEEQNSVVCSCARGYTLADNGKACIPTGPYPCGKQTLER
Sequence (P12259 29-737 partner limits assumed): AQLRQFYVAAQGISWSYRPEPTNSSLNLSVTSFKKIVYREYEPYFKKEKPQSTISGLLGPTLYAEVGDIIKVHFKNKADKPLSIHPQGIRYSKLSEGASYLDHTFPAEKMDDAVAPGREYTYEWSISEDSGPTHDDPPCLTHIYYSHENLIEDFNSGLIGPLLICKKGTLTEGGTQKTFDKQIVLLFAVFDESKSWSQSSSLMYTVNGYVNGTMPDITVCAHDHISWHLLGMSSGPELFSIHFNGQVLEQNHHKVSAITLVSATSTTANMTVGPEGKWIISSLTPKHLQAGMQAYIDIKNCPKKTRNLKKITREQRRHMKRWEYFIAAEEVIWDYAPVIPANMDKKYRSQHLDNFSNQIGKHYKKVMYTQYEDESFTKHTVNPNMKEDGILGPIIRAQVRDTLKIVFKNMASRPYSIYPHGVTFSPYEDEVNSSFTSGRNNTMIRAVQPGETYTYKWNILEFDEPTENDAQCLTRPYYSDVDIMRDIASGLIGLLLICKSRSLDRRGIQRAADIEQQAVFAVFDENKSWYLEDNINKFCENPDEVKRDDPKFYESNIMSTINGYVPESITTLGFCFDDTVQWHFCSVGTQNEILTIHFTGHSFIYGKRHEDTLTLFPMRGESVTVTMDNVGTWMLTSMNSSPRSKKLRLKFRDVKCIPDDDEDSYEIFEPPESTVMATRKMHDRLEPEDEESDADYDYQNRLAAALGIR
Sequence (P12259 1574-2224 partner limits assumed): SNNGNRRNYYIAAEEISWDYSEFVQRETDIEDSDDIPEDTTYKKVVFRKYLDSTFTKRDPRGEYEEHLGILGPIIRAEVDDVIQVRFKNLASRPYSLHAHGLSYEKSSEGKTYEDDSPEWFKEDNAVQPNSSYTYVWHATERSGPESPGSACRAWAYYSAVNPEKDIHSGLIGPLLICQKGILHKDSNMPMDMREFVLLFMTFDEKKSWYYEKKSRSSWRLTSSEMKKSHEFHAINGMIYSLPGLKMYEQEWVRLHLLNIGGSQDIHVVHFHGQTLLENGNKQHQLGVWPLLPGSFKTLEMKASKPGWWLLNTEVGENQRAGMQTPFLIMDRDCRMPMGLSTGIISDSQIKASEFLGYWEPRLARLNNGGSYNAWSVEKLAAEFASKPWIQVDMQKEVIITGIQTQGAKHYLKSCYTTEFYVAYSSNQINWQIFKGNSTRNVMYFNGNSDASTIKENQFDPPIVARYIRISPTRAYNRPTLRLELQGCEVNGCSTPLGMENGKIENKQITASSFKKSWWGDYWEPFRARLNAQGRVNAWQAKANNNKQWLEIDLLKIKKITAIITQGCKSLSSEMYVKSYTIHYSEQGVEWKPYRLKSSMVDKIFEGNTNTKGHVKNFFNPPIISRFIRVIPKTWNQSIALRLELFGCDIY
Test: Prothrombinase inhibition assay, plasma free system
Assay type: biochemical
Settings: factor Xa 0.5 nM, factor Va 2 nM, PS:PC, 5 min preincubation; read-out: Inhibitory Activity (IC50) Prothrombinase IIase
attribute_measured: pIC50
Please treat pIC50 as minus the base-10 logarithm of the molar concentration.

{"compound": "COC(=O)C(Cc1cccc(C(=N)N)c1)NC(=O)c1ccc(OC2CCN(C(C)=N)CC2)cc1 (centres unmarked)", "study_system": "Prothrombinase (Homo sapiens)", "pIC50": 5.40}

Could you now consider this next compound?
I would be grateful if you could share the reported pIC50 for `CC(=N)N1CCC(Oc2ccc(C(=O)NCc3cccc(C(=N)N)c3)cc2)CC1` .
4.70
